ASSAYED SYSTEM: T1, recombinant human IL-23 (human, UniProt Q9NPF7 20-189; P29460 23-328)
T1 construct: also called hIL-23
T1 sequence 1: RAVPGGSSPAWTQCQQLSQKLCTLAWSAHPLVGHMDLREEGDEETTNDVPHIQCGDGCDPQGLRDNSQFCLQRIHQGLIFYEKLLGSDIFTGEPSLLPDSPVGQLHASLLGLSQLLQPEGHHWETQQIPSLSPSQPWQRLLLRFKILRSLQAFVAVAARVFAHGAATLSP
T1 sequence 2: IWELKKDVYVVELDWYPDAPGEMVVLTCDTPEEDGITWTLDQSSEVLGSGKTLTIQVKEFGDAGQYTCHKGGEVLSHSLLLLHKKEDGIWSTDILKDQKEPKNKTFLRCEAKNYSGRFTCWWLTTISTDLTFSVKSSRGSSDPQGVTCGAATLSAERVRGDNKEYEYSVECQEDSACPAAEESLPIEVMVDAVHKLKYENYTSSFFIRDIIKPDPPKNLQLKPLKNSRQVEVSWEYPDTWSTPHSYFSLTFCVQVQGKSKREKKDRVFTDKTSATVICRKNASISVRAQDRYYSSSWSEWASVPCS
MEASUREMENT NOTES: SPR (Biacore T100), purified antibody captured on anti-human IgG, IL-23 analyte, 1:1 model
Collected koff values appear next to each entry.
Answer format: value, then unit.

Please review the entries below; each comes with its answer.
BINDER	koff
A9M3 (antibody, V domains shown) VH: QVQLVQSGAEVKKPGSSVKVSCKASGYTFTSYGITWVRQAPGQGLEWMGEDYPRSGNTYYNEKFKGRVTITADKSTSTAYMELSSLRSEDTAVYYCARVEFISTVVAPYYYALDYWGQGTLVTVSS VL: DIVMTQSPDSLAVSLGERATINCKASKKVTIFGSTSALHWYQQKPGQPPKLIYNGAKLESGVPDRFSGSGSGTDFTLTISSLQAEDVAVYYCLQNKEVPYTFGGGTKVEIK	0.000171 s⁻¹
A5M0 (antibody, human IgG1, kappa, V domains shown, Full length chains) VH: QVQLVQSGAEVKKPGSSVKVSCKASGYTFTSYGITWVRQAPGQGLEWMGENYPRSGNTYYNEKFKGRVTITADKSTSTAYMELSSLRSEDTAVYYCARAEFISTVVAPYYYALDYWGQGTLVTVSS VL: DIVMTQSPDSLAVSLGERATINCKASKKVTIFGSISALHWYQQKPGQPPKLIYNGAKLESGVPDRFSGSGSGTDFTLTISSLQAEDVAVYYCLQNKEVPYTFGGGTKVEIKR	0.000171 s⁻¹

Data point: A3M0 (antibody, human IgG1, kappa, V domains shown, Full length chains; also called humanized mAb A3M0) VH: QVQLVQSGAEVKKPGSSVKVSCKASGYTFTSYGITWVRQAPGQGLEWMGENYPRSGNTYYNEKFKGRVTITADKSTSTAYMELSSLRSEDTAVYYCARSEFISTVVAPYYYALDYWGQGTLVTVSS VL: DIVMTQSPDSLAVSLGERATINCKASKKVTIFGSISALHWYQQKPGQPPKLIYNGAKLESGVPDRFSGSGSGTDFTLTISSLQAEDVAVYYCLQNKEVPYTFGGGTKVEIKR ; koff = 0.000237 s⁻¹
